Values from ChEMBL document CHEMBL1137864

# Tested on: Melanocyte-stimulating hormone receptor (Homo sapiens, UniProt Q01726)
# Sequence (Q01726 whole entry): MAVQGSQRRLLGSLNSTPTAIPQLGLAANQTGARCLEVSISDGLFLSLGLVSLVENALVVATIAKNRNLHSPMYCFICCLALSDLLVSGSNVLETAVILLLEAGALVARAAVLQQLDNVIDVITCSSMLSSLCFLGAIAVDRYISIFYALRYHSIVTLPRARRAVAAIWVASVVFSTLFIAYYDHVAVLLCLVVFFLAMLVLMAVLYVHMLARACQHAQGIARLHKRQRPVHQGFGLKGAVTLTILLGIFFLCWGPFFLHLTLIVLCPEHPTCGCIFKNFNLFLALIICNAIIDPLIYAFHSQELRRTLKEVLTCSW
# Assay: Agonistic activity against human Melanocortin 1 receptor
Metric: EC50 (nM)

Observe how each entry below is paired with its result.
Compound	EC50, nM
CC(=O)N[C@@H](Cc1ccc(Cl)cc1)C(=O)NC(Cc1ccccc1)C(=O)N[C@@H](CCCN=C(N)N)C(=O)N[C@@H](Cc1c[nH]c2ccccc12)C(N)=O (stereo in doubt)	867
CC(C)C(=O)N[C@@H](Cc1ccc(Cl)cc1)C(=O)NC(Cc1ccccc1)C(=O)N[C@@H](CCCN=C(N)N)C(=O)N[C@@H](Cc1c[nH]c2ccccc12)C(N)=O (stereo in doubt)	565
CS(=O)(=O)N[C@@H](Cc1ccc(Cl)cc1)C(=O)NC(Cc1ccccc1)C(=O)N[C@@H](CCCN=C(N)N)C(=O)N[C@@H](Cc1c[nH]c2ccccc12)C(N)=O (stereo in doubt)	534

P: N=C(N)NCCC[C@H](NC(=O)C(Cc1ccccc1)NC(=O)[C@H](Cc1ccc(Cl)cc1)NC(=O)CNC=O)C(=O)N[C@@H](Cc1c[nH]c2ccccc12)C(N)=O (stereo in doubt)
Q: N=C(N)NCCC[C@H](NC(=O)C(Cc1ccccc1)NC(=O)[C@H](Cc1ccc(Cl)cc1)NC(=O)CCCCc1ccccc1)C(=O)N[C@@H](Cc1c[nH]c2ccccc12)C(N)=O (stereo in doubt)
R: N=C(N)NCCC[C@H](NC(=O)C(Cc1ccccc1)NC(=O)C(Cc1ccccc1)NC(=O)[C@H](Cc1c[nH]cn1)NC(=O)CCCC(=O)c1ccccc1)C(=O)N[C@@H](Cc1c[nH]c2ccccc12)C(N)=O (stereo in doubt)
# ascending order, key=EC50 Reply with the labels, ordered as the question asks.
R, Q, P
